Target: MAP kinase-activated protein kinase 2 (Homo sapiens);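 further: values are mean inhibition from the GSK PKIS screen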
Details: at 1 µM
What inhibition was measured for each of the following?
One number for each entry, in %.

Would you please look over these solved cases?
[Q] inhibition for CS(=O)(=O)CCNCc1ccc(-c2ccc3ncnc(Nc4ccc(OCc5ccccc5)c(Br)c4)c3c2)o1 ?
[A] 0.14

[Q] Field entry: Fc1ccc(-c2nc3n(c2-c2ccncc2)CCS3)cc1
[A] 0.79

[Q] Thanks! And COc1ccc2ncn(-c3cc(O[C@H](C)c4ccccc4Cl)c(C(N)=O)s3)c2c1 ?
[A] 1.62

Your task in this section: give inhibition for each listed record.
1. O=C(NCC1CC1)c1ccc(-c2cccc(C(=O)NC3CC3)c2)cc1
2. COc1cc(Nc2ncc(-c3ccccc3)o2)cc(OC)c1OC
3. NS(=O)(=O)c1ccc(Nc2cc(-c3ccc(O)c(F)c3)n[nH]2)cc1
4. COc1cc(N2CCN(C(C)C)CC2)ccc1Nc1nc(Nc2ccc(F)cc2C(=O)NC[C@@H](O)CO)c2cc[nH]c2n1
5. Fc1ccc(-c2ncn(C3CCNCC3)c2-c2ccnc(Oc3ccc4c(c3)OCO4)n2)cc1

[A]
1. 1.17
2. -0.59
3. -1.79
4. 2.39
5. -0.67

List inhibition for every entry below, keeping the order given.
1. CS(=O)(=O)CCNCc1cc(-c2cc3c(Nc4ccc(OCc5cccc(F)c5)c(Cl)c4)ncnc3s2)cs1
2. CCc1cccc(CC)c1/C=C/c1cncc(C(=O)NC)c1

[A]
1. 3.42
2. 0.99

* * *

Kindly supply the reported inhibition values for the records listed here.
Molecular target: Receptor tyrosine-protein kinase erbB-4 (Homo sapiens);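 further: each value is a mean percent inhibition of ERBB4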
Conditions: at 1 µM
One number for each entry, in %.

For the 2 compounds below, give their inhibition values.
1. NCc1ccc(-n2c(-c3nonc3N)nc3cnccc32)cc1
2. COc1cc(Nc2ncc3c(C)nc(-c4cccc(Oc5ccccc5)c4)n3n2)cc(OC)c1OC

[A]
18
8.43

For the 3 compounds below, give their inhibition values.
1. CS(=O)(=O)CCNCc1cc(-c2cc3c(Nc4ccc(OCc5cccc(F)c5)c(Cl)c4)ncnc3s2)cs1
2. NS(=O)(=O)c1ccc(N/N=C2\C(=O)Nc3ccc(-c4cnco4)cc32)cc1
3. NS(=O)(=O)c1ccc(Nc2cc(-c3ccc(O)c(F)c3)n[nH]2)cc1

[A]
1: 76.7; 2: 14.2; 3: -6.22

* * *

Biological target: cGMP-dependent protein kinase 1 (Homo sapiens);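 further: listed percent inhibition of PRKG1 is a mean value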
Conditions: at 1 µM
Answer FALSE if inhibition is under 5%, and TRUE if it is 5% or more.

[Q] Quick check: does Fc1ccc(-c2c(-c3ccncc3)nc3n2CCS3)cc1 have inhibition greater than or equal to 5%?
[A] TRUE

[Q] Entry NC(=O)Cc1ccccc1Oc1nccc(-c2c(-c3ccc(F)cc3)ncn2C2CCNCC2)n1 please
[A] FALSE

[Q] Request: O=C(Nc1n[nH]c2cc(-c3cc(F)ccc3F)ccc12)C1CC1
[A] FALSE

[Q] Then CCC(=O)Nc1ccc(C)c(-c2ccc(C(=O)NCC3CC3)cc2)c1 ?
[A] FALSE

[Q] Let us now turn to Cc1nnc(-c2ccc(C)c(-c3ccc(C(=O)NCc4ccc(Cl)cc4)cc3)c2)o1
[A] TRUE

[Q] Would you kindly repeat that for CCc1nccc2c1nc(-c1nonc1N)n2CC ?
[A] TRUE

[Q] Next: O=C(NCC1CC1)c1ccc(-c2cccc(C(=O)NC3CC3)c2)cc1
[A] FALSE

[Q] Now this one: Fc1ccc(-c2nc3n(c2-c2ccncc2)CCS3)cc1
[A] FALSE

***
[Q] Can NS(=O)(=O)c1ccc(N/N=C2\C(=O)Nc3ccc(-c4cnco4)cc32)cc1 be said to have inhibition at or above 5%?
[A] FALSE

[Q] Try the compound COc1cc(C)c(N(C)C(=O)CN(C)C)cc1Nc1nc(Nc2cccc(F)c2C(N)=O)c2cc[nH]c2n1
[A] FALSE

* * *

Could you please report measured inhibition for the items listed next?
Molecular target: Sphingosine kinase 2 (Homo sapiens)
Details: at 1 µM
Description: GSK_PKIS: SPHK2 mean inhibition at 1 uM [Nanosyn]

Sample records with inhibition:
[Q] Looking for the measured inhibition of COc1cc2ncn(-c3cc(OCCc4ccccc4)c(C(N)=O)s3)c2cc1OC , can you help?
[A] 0.29%

[Q] Also check C[C@@H](Oc1cc(-n2cnc3ccc(OC4CCN(C)CC4)cc32)sc1C(N)=O)c1ccccc1Cl
[A] -1.96%

[Q] Next compound: O=C1NC(=O)C(c2cccc(Cl)c2)=C1Nc1ccc(Cl)c(C(=O)O)c1
[A] 0.61%

[Q] Try Clc1ccc(CNc2nccc(-c3cnn4ncccc34)n2)cc1 next.
[A] -0.22%

[Q] Next: O=C(Nc1ccc(Oc2ccc3[nH]c(NC(=O)c4ccccc4)nc3c2)cc1)Nc1cc(C(F)(F)F)ccc1F
[A] -0.1%

[Q] Lookup c1ccc(-c2n[nH]cc2-c2ccnc(-c3ccc(OCCN4CCOCC4)cc3)c2)nc1
[A] -2.14%

Quick batch: inhibition for everything below.
1. Cc1nnc(-c2ccc(C)c(-c3ccc(C(=O)NCc4ccc(Cl)cc4)cc3)c2)o1
2. COc1ccc(C2=C(N3CCc4ccccc43)C(=O)NC2=O)cc1
3. NCc1ccc(-n2c(-c3nonc3N)nc3cnccc32)cc1
4. CCS(=O)(=O)c1ccc(OC)c(Nc2ncc(-c3cccc(-c4ccccc4F)c3)o2)c1
5. O=C(Nc1n[nH]c2nc(-c3ccc(O)cc3)c(Br)cc12)C1CC1
6. O=C1Nc2ccc(I)cc2C1=Cc1cc(Br)c(O)c(Br)c1
7. NC(=O)c1ccc(Oc2nccc(-c3c(-c4ccc(F)cc4)ncn3C3CCNCC3)n2)cc1
8. COc1cc2ncn(-c3cc(OCc4cccs4)c(C(N)=O)s3)c2cc1OC

[A]
1. 0.44%
2. 0.21%
3. -0.74%
4. -2.48%
5. -0.74%
6. 3.26%
7. 0.08%
8. -0.11%

State recorded inhibition for all listed compounds.
1. NS(=O)(=O)c1ccc(N/N=C2\C(=O)Nc3ccc(C(=O)NCCCn4ccnc4)cc32)cc1
2. COC(=O)Nc1nc2ccc(Sc3ccc(NC(=O)Nc4cc(C(F)(F)F)ccc4F)cc3)cc2[nH]1
3. COc1cc2ncn(-c3cc(OCc4ccccc4C(F)(F)F)c(C(C)=O)s3)c2cc1OC
4. CS(=O)(=O)CCNCc1cc(-c2cc3c(Nc4ccc(OCc5cccc(F)c5)c(Cl)c4)ncnc3s2)cs1
5. COc1ccc2cc(-c3c(-c4ccncc4)nc(-c4ccc(S(C)(=O)=O)cc4C)n3C)ccc2c1
6. COc1cc(Nc2ncc3c(C)nc(-c4cccc(Oc5ccccc5)c4)n3n2)cc(OC)c1OC

[A]
1. -2.51%
2. -0.1%
3. -1.72%
4. 0.36%
5. 4.01%
6. 0%

* * *

Molecular target: Serine/threonine-protein kinase PAK 1 (Homo sapiens);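 further: reported values are mean percent inhibition of PAK1 activity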
Settings: at 1 µM
measured-attribute: inhibition (%)
One number for each entry, in %.

As a guide, the following entries are already answered.
[Q] Value lookup for inhibition; key = COc1cc(N2CCN(C(C)C)CC2)ccc1Nc1nc(Nc2ccc(F)cc2C(=O)NC[C@@H](O)CO)c2cc[nH]c2n1
[A] 11.8

[Q] Moving on to CN(C)CCCNc1nccc(-c2c(-c3ccc(F)cc3)nn3cc(C(F)(F)F)ccc23)n1
[A] -0.15

[Q] Same for O=C(Nc1ccc(Oc2ccc3[nH]c(NC(=O)c4ccccc4)nc3c2)cc1)Nc1cc(C(F)(F)F)ccc1F
[A] 5.94

Quick one: give me inhibition for each item below, same order please.
1. O=C1NC(=O)C(c2cccc(Cl)c2)=C1Nc1ccc(Cl)c(C(=O)O)c1
2. N#Cc1ccc(Oc2nccc(-c3c(-c4ccc(F)cc4)ncn3C3CCNCC3)n2)cc1
3. COc1cc2ncn(-c3cc(OCCc4ccccc4)c(C(N)=O)s3)c2cc1OC
4. Cc1ccc(C(=O)NC(C)C)cc1-c1ccc(C(=O)NCC2CC2)cc1
5. COc1cc(Nc2ncc(-c3ccccc3)o2)cc(OC)c1OC
6. NC(=O)Cc1ccccc1Oc1nccc(-c2c(-c3ccc(F)cc3)ncn2C2CCNCC2)n1

[A]
6.62
7.87
5.32
-0.84
-0.52
7.55

Could you tell me inhibition for each of these compounds? They are listed below.
1. Cc1ccc(C(=O)NC2CCC2)cc1-c1ccc(C(=O)NCC2CC2)cc1
2. NS(=O)(=O)c1ccc(N/N=C2\C(=O)Nc3ccc(-c4cnco4)cc32)cc1
3. COC(=O)Nc1nc2ccc(Sc3ccc(NC(=O)Nc4cc(C(F)(F)F)ccc4F)cc3)cc2[nH]1
4. CCc1cccc(CC)c1/C=C/c1cncc(C(=O)NC)c1
5. c1ccc(-c2n[nH]cc2-c2ccnc(-c3ccc(OCCN4CCOCC4)cc3)c2)nc1
6. COc1ccc(C2=C(N3CCc4ccccc43)C(=O)NC2=O)cc1
7. Fc1ccc(-c2ncn(C3CCNCC3)c2-c2ccnc(Oc3ccc4c(c3)OCO4)n2)cc1

[A]
1. 8.35
2. 3.12
3. -1.32
4. 2.08
5. 5.57
6. 7.47
7. 8.06

The origin of these recorded values is ChEMBL document CHEMBL1961873.
